- System: CCRIS mutagenicity, Ames/micronucleus/aberration tests
- test-summary: CCRIS mutagenicity studies
- condition: Test System: AMES SALMONELLA TYPHIMURIUM; Strain/Indicator: TA100; Metabolic Activation: NONE; Method: STANDARD PLATE
Active and inactive are the calls of the source. How the calls were made is not given here.
readout: mutagenic call

As a guide, the following entries are already answered.
[
  {
    "compound": "OCC1CO1 (stereo not drawn)",
    "mutagenic call": "active; positive"
  },
  {
    "compound": "CCCC(=O)Nc1ccc(OCC(O)CNC(C)C)c(C(C)=O)c1 (stereo not drawn)",
    "mutagenic call": "inactive; negative"
  },
  {
    "compound": "Nc1cccc([N+](=O)[O-])c1O",
    "mutagenic call": "inactive; negative"
  },
  {
    "compound": "CCn1cc(C(=O)O)c(=O)c2cc(F)c(-c3ccncc3)c(F)c21",
    "mutagenic call": "inactive; negative"
  },
  {
    "compound": "O=C(OCc1ccc(Cl)cc1)c1cccc2cccnc12",
    "mutagenic call": "inactive; negative"
  },
  {
    "compound": "CCC(=O)N(c1ccc(Cl)c(Cl)c1)[C@@H]1CCC[C@H]1N(C)C",
    "mutagenic call": "inactive; negative"
  },
  {
    "compound": "CCC1(c2ccccc2)C(=O)NC(=O)NC1=O",
    "mutagenic call": "inactive; negative"
  },
  {
    "compound": "COc1c(Cl)ccc(Cl)c1C(=O)O",
    "mutagenic call": "inactive; negative"
  },
  {
    "compound": "O=C(O)c1ccc(N=Nc2ccc(O)c(C(=O)O)c2)cc1",
    "mutagenic call": "inactive; negative"
  },
  {
    "compound": "COc1ccc2cc(CCC(C)=O)ccc2c1",
    "mutagenic call": "inactive; negative"
  }
]

// query Input `OCc1ccc(Br)cc1` , output reported mutagenic call.
// result inactive; negative

// query Input Brc1ccc(CN2[C@@H]3c4ccccc4-c4ccccc4[C@@H]32)cc1 (stereo partly drawn) , output reported mutagenic call.
// result active; positive

// query Input CCN(CC)CCCC(C)Nc1c2ccc(Cl)cc2nc2ccc(OC)cc12 (stereo not drawn) , output reported mutagenic call.
// result inactive; negative

// query Input `C=CC(=O)OC(C)(C)C` , output reported mutagenic call.
// result inactive; negative

// query Input `C=CC(=O)OCCOCCOC(=O)C=C` , output reported mutagenic call.
// result inactive; negative

// query Input CCC/C=C/C(=O)O[C@@H]1C(C)(C)C[C@@H]2C34CC3(C(C=O)=C[C@]12O)[C@@H](O)OC4=O (stereo partly drawn) , output reported mutagenic call.
// result active; positive

// query Input `CN(C)c1ccc(C(=C2C=CC(=N)C=C2)c2ccc(N(C)C)cc2)cc1` , output reported mutagenic call.
// result inactive; negative

// query Input `CC(=O)ON(OC(C)C)C(=O)c1ccccc1` , output reported mutagenic call.
// result active; positive

// query Input `Nc1ccc(-c2ccc(N)cc2)cc1` , output reported mutagenic call.
// result inactive; negative

// query Input `N/C(=N\O)c1cc(O)c(O)c(O)c1` , output reported mutagenic call.
// result inactive; negative

// query Input `O=C1OCC(CCl)=C1Cl` , output reported mutagenic call.
// result active; positive

// query Input COP(=O)(OC)C(OC(=O)CCl)C(Cl)(Cl)Cl (stereo not drawn) , output reported mutagenic call.
// result inactive; negative

###

- System: CCRIS mutagenicity, Ames/micronucleus/aberration tests
- test-summary: CCRIS mutagenicity studies
- condition: Test System: AMES SALMONELLA TYPHIMURIUM; Strain/Indicator: TA1537; Metabolic Activation: HAMSTER, LIVER, S-9, AROCLOR 1254; Method: PREINCUBATION
Activity calls are given as the source filed them. No rule for the calls is given here.
Your response should consist of one outcome taken from 1 (active), 0 (inactive)

[
  {
    "compound": "Brc1ccccc1-c1ccccc1",
    "class": 0
  },
  {
    "compound": "Cc1cccc(C)c1N",
    "class": 0
  },
  {
    "compound": "OCCNCCO",
    "class": 0
  }
]

// query Tell me the recorded outcome of this test for `Clc1cc(Cl)c(Cl)c(Cl)c1Cl` .
// result 0

// query Tell me the recorded outcome of this test for `Clc1cc(Cl)c(Cl)c(Cl)c1` .
// result 0

// query Tell me the recorded outcome of this test for `Oc1c(Cl)c(Cl)c(Cl)c(Cl)c1Cl` .
// result 0

// query Tell me the recorded outcome of this test for `Clc1c(Cl)c(Cl)c2ccccc2c1Cl` .
// result 0

// query Tell me the recorded outcome of this test for `O=C1CCC(=O)O1` .
// result 0

// query Tell me the recorded outcome of this test for OCC1CO1 (stereo not drawn) .
// result 1

// query Tell me the recorded outcome of this test for `Oc1ccccc1-c1ccccc1` .
// result 0

###

- Tested on: CCRIS mutagenicity, Ames/micronucleus/aberration tests
- test-summary: CCRIS mutagenicity studies
- condition: Test System: AMES SALMONELLA TYPHIMURIUM; Strain/Indicator: TA98; Metabolic Activation: RAT, LIVER, S-9, PHENOBARBITAL; Method: STANDARD PLATE
Calls of active or inactive are those of the source. The rule behind the calls is not given here.
Your response should consist of one outcome taken from active, inactive

A selection of reference data follows.
[
  {
    "molecule": "O=c1c2c(O)cccc2oc2cc3c(c(O)c12)[C@@H]1CCO[C@@H]1O3",
    "experimental-target": "CCRIS mutagenicity, Ames/micronucleus/aberration tests",
    "class": "inactive"
  },
  {
    "molecule": "O=c1c2c(O)cccc2oc2cc3c(c(O)c12)[C@@H]1C=CO[C@@H]1O3",
    "experimental-target": "CCRIS mutagenicity, Ames/micronucleus/aberration tests",
    "class": "inactive"
  },
  {
    "molecule": "Cc1ccc2cc3c(ccc4ccccc43)c3c2c1CC3",
    "experimental-target": "CCRIS mutagenicity, Ames/micronucleus/aberration tests",
    "class": "active"
  }
]

// query Tell me the recorded outcome of this test for CO[C@]1(CC[C@@H](C)CO[C@@H]2O[C@H](CO)[C@@H](O)[C@H](O)[C@H]2O)O[C@H]2C[C@H]3[C@@H]4CC=C5C[C@@H](O[C@@H]6O[C@H](CO)[C@@H](O[C@@H]7O[C@@H](C)[C@H](O)[C@@H](O)[C@H]7O)[C@H](O)C6O[C@@H]6O[C@@H](C)[C@H](O)[C@@H](O)[C@H]6O)CC[C@]5(C)[C@H]4CC[C@]3(C)[C@H]2[C@@H]1C (stereo not given in full) .
// result inactive

// query Tell me the recorded outcome of this test for `c1ccc(-c2ccncc2)nc1` .
// result active

###

- System: CCRIS mutagenicity, Ames/micronucleus/aberration tests
- test-summary: CCRIS mutagenicity studies
- condition: Test System: AMES SALMONELLA TYPHIMURIUM; Strain/Indicator: TA1535; Metabolic Activation: NONE; Method: STANDARD PLATE
- Excerpt: The CCRIS database contains chemical records with carcinogenicity, mutagenicity, tumor promotion, and tumor inhibition test results. It was developed by the National Cancer Institute (NCI). Data are derived from studies cited in primary journals, current awareness tools, NCI reports, and other sources. Test results have been reviewed by experts in carcinogenesis and mutagenesis. CCRIS provides historical information from the years 1985 - 2011. It is no longer updated. […]
Active and inactive are the calls of the source. No rule for the calls is given here.
Your response should consist of one outcome taken from yes for active, no for inactive

A selection of reference data follows.
[
  {
    "compound": "CN(N=O)C(=O)c1c(N(C)N=O)ncn1C",
    "class": "yes"
  },
  {
    "compound": "CC(C)CC(C)Nc1ccc(Nc2ccccc2)cc1 (stereo unspecified)",
    "class": "no"
  },
  {
    "compound": "c1ccccc1",
    "class": "no"
  },
  {
    "compound": "O=C([O-])[C@H](O)[C@@H](O)[C@H](O)[C@H](O)CO.O=C([O-])[C@H](O)[C@@H](O)[C@H](O)[C@H](O)CO.[Mn+2]",
    "class": "no"
  }
]

// query Tell me the recorded outcome of this test for `Oc1ccc2c(O)c3ccccc3cc2c1O` .
// result no

// query Tell me the recorded outcome of this test for `Cc1cc(C)c(S(=O)(=O)O)cc1N=Nc1cc(S(=O)(=O)O)c2ccccc2c1O` .
// result no

###

- System: CCRIS mutagenicity, Ames/micronucleus/aberration tests
- test-summary: CCRIS mutagenicity studies
- condition: Test System: AMES SALMONELLA TYPHIMURIUM; Strain/Indicator: TM677; Metabolic Activation: NONE; Method: PREINCUBATION
The source made the active and inactive calls. No rule for the calls is given here.
Your response should consist of one outcome taken from label 1 for active, label 0 for inactive

[
  {
    "compound": "OC1c2cccc3c2[C@]2(O[C@H]2C1O)c1ccccc1-3 (stereo not given in full)",
    "experimental-target": "CCRIS mutagenicity, Ames/micronucleus/aberration tests",
    "class": "label 1"
  },
  {
    "compound": "CCCCCCCCCCCCCCCC(=O)OCC1(O)CC23CC[C@@H]4c5ccoc5C=CC4(C)C2CCC1C3 (stereo not given in full)",
    "experimental-target": "CCRIS mutagenicity, Ames/micronucleus/aberration tests",
    "class": "label 0"
  },
  {
    "compound": "O=C1C=C2c3ccccc3-c3cccc(c32)C1=O",
    "experimental-target": "CCRIS mutagenicity, Ames/micronucleus/aberration tests",
    "class": "label 1"
  },
  {
    "compound": "Oc1cccc2ccc3[nH]c4ccc5ccccc5c4c3c12",
    "experimental-target": "CCRIS mutagenicity, Ames/micronucleus/aberration tests",
    "class": "label 0"
  }
]

From here, focus on the item given below.
// query Tell me the recorded outcome of this test for `CC(=O)OC[C@@]1(O)CC23CC[C@@H]4c5ccoc5CC[C@@]4(C)[C@@H]2CC[C@@H]1C3` .
// result label 0
